experiment.summary: in vitro
experimental.conditions: rat, gh3-tre-luc cells, AC50 (uM) modified / 1000
Where a name gives a salt, the structure may show the parent alone.
Each entry below carries its recorded CC50 at 24 h.

>  <molecule>
CCCCCCCC[P+](CCCCCCCC)(CCCCCCCC)CCCCCCCC [Tetraoctylphosphonium bromide]

>  <CC50 at 24 h>
4.22 µM

$$$$
>  <molecule>
Cc1ccc(N)c([N+](=O)[O-])c1 [4-Methyl-2-nitroaniline]

>  <CC50 at 24 h>
> 90 µM

$$$$
>  <molecule>
C[C@H]1CC[C@]2(NC1)O[C@H]1C[C@H]3[C@@H]4CC[C@H]5C[C@@H](O[C@@H]6O[C@H](CO)[C@H](O[C@@H]7O[C@H](CO)[C@@H](O)[C@H](O[C@@H]8OC[C@@H](O)[C@H](O)[C@H]8O)[C@H]7O[C@@H]7O[C@H](CO)[C@@H](O)[C@H](O)[C@H]7O)[C@H](O)[C@H]6O)CC[C@]5(C)[C@H]4CC[C@]3(C)[C@H]1[C@@H]2C [alpha-Tomatine]

>  <CC50 at 24 h>
2.38 µM

$$$$

Give the measured CC50 at 24 h for CCNC(=O)N1CCN(CCCC(c2ccc(F)cc2)c2ccc(F)cc2)CC1 [Amperozide hydrochloride]
19.7 µM

Give the measured CC50 at 24 h for COC(C)(C)C [Methyl tert-butyl ether]
> 90 µM

Give the measured CC50 at 24 h for CC(=O)OCC(CCn1cnc2cnc(N)nc21)COC(C)=O [Famciclovir]
> 50 µM
